# collection of pIC50 values tested on Cathepsin L2 (Homo sapiens, UniProt O60911)
# Sequence (O60911 whole entry): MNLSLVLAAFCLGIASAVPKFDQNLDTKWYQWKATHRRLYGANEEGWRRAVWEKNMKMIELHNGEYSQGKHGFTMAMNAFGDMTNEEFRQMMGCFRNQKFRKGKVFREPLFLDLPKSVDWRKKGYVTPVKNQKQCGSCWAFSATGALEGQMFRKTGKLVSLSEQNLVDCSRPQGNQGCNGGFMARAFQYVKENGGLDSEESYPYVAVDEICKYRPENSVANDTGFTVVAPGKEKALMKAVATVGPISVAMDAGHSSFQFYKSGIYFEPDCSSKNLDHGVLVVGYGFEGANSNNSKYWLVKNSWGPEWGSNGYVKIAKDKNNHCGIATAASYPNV
When answering, recall that pIC50 equals minus log10 of the concentration in mol/L, and write that number alone.

Given smiles	Measured quantity	Reported
CC(C)[C@H](N[C@@H](c1ccc(-c2ccc(S(C)(=O)=O)cc2)cc1)C(F)(F)F)C(=O)N[C@H](C#N)Cc1ccc(C#N)cc1F	pIC50	7.55

Here is another compound to look at.
Asked: Quote pIC50 reported for CC(C)[C@H](N[C@@H](c1ccc(-c2ccc([C@@H](O)C(F)F)cc2)cc1)C(F)(F)F)C(=O)N[C@H](C#N)Cc1ccc(C#N)cc1F please.
Given back: 7.16
